Test system: RARb:RXRa (NR concentration 270 nM, RXRa partner concentration 90 nM)
test.name: PBM binding z-score (relative to random genomic background probes); higher = stronger binding; sequences stand for … in GC…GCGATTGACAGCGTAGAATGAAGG
Param threshold (1) applies to PBM binding z-score; output condition met when value >= threshold, condition not met when value < threshold.

Known results for sequences:
sequence=TCGAGTAGGTTACCAGTGGGGCATTCAGCTTTCT assigned_category="condition not met"
sequence=TATACAGGGTCAAACGCCAGAGTACGAATGTCGA assigned_category="condition met"
sequence=ACAGACAGGAGATGAAGGTAACTCAGGCTATCAT assigned_category="condition not met"

Q: Reported PBM binding z-score at or above 1? `CCTATTAGTTGATCATAAGGGCAACCGAAGCTCG`
Result: condition met

Q: Moving on to the next sequence: `GGTGCTAGGTCAGGTTGGTCAGCTAACGGGTACG`
Result: condition met

Q: Moving on to the next sequence: `AGAATGAGGTTATACGTTGATCAGGGAAGAAAGT`
Result: condition met

Q: Moving on to the next sequence: `TCTATTAGTTGAAGGGCAACCGACGAGTCCGTTT`
Result: condition met

Q: Moving on to the next sequence: `TCATATAGGTGAAGGTGAAAGTCGAACGATATGA`
Result: condition met

Q: Moving on to the next sequence: `CCTAGTGGGCCATTCAGAGGTCATTGATCATATG`
Result: condition met

Q: Moving on to the next sequence: `TCATATAGGTCAATGCTAGGTGAAAGTCCGATCT`
Result: condition met

Q: Moving on to the next sequence: `CGAACTAGGTCCTCCAGGACAGTGAATACATTGA`
Result: condition not met

Q: Moving on to the next sequence: `CAAACTAGGTCACGAAACGTCAAAGTCGAATGAC`
Result: condition met

====

Tested on: VDR homodimer (NR concentration 270 nM)
test.name: PBM binding z-score (relative to random genomic background probes); higher = stronger binding; sequences stand for … in GC…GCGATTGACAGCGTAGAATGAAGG
Parameter: PBM binding z-score. Scope: all listed entries.
Write the number on its own, no unit after it.

sequence=TCATATTGGTAAACAGGTGAAAGTCCGTAAGTTA recorded_number=0.487

Q: Which value of PBM binding z-score has been reported for `CCTTACGGGTCACAAGGTTATAGCACGACGAGCG` in the records?
Result: 1.54

Q: Moving on to the next sequence: `AGTCAAAGTTCATCCAGGTAACGTAAGATATGCT`
Result: 5.17

Q: Moving on to the next sequence: `TCTTGTAGATCAACAGGAGGTTAAGAACGATCGA`
Result: -0.0634

Q: Moving on to the next sequence: `GCTGCTAGGTCAACTGATTGTCAGCTAAAGCTCG`
Result: 0.00113

Q: Moving on to the next sequence: `CCGACTAGGGCATAAGGTTACCATAAGCCAGCCC`
Result: -0.17

====

Tested on: PPARg:RXRa 270nM:90nM, anti-RXR (NR concentration 270 nM, RXRa partner concentration 90 nM)
test.name: PBM binding z-score (relative to random genomic background probes); higher = stronger binding; sequences stand for … in GC…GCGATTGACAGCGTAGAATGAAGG
reported.metric: PBM binding z-score

Q: Which value of PBM binding z-score has been reported for `TCATATAGGTAAACAGGTGCAAGTCCGTAAGTTA` in the records?
Result: 2.53

Q: Moving on to the next sequence: `CGAACTAGGTCATTAACAGGACAGTGAATAGTAA`
Result: 5.93

Q: Moving on to the next sequence: `CATACAGGGTCAGCTAGGCCAGTGTAGGGACGGC`
Result: 2.97

====

System: PPARg:RXRa IVT, anti-PPARg (NR concentration 270 nM, RXRa partner concentration 90 nM)
test.name: PBM binding z-score (relative to random genomic background probes); higher = stronger binding; sequences stand for … in GC…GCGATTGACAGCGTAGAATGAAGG
Parameter: PBM binding z-score. Scope: all listed entries.
Write the number on its own, no unit after it.

sequence=ATACCAAGGTGATCGTGAGGTCGTAGATACTAAC reported_metric="PBM binding z-score" recorded_number=1.54

Q: Which value of PBM binding z-score has been reported for `ACAGACAGATGATGAAGGTAACTCAGGCTATCAT` in the records?
Result: -0.00444

Q: Moving on to the next sequence: `GCTAGTTGGTCAGTAAAAGGTCACGCACCGGTCG`
Result: 2.94

Q: Moving on to the next sequence: `ATCTCTAGGTAAAGATAGTTAAGTGAATGCAAAT`
Result: 1.42

Q: Moving on to the next sequence: `GGAACGAGGGCAAAGTTGATAGCATCTGTCGACG`
Result: 4.32

Q: Moving on to the next sequence: `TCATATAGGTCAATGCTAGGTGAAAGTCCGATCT`
Result: 6.83

Q: Moving on to the next sequence: `TCGAGTAGGTTAGTCGGGGCATACAGCCAACATA`
Result: 1.89

Q: Moving on to the next sequence: `CCTACCGGGCCAAGGTCATTGATCAGTCAAAGCA`
Result: 1.19

Q: Moving on to the next sequence: `TCTAGTTTGTCAAAGGTCACACACTCGAAATGCG`
Result: 4.9

Q: Moving on to the next sequence: `GCAGACAGGTGAAACGCAGGTAACTCATGGTGGC`
Result: 0.828

====

System: RARg:RXRa (NR concentration 270 nM, RXRa partner concentration 90 nM)
test.name: PBM binding z-score (relative to random genomic background probes); higher = stronger binding; sequences stand for … in GC…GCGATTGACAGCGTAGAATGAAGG
Parameter: PBM binding z-score. Scope: all listed entries.

Consider the following illustrative entries.
sequence=AGAATGAGGTTATAAGTAGATCAGGGAAGAAAGT result=1.35
sequence=GCAGACAGGTGAAACGTAGGTAACTCAGGGTGGC result=0.956
sequence=ATCTCTAGTTAAAGTTCAGTGAAAGATCGATAGA result=1.88
sequence=AGAATGAGGTTACCAAATATCAGGGAAACGCTTG result=1.91
sequence=CGTACTGGGCCATTCAGAGGTCATTGATCATATG result=4.62

Q: Which value of PBM binding z-score has been reported for `CGAACTAGGTCAGTGACAGGACAGTGAATAGTAA` in the records?
Result: 3.47

====

Parameter: PBM binding z-score. Scope: all listed entries.
Tested on: THRa homodimer (NR concentration 90 nM)
test.name: PBM binding z-score (relative to random genomic background probes); higher = stronger binding; sequences stand for … in GC…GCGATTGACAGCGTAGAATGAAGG
Write the number on its own, no unit after it.

Consider the following illustrative entries.
sequence=TCTTGCAGGCCAGAGGGTCACTCAAGAGGTACGG measured_target="THRa homodimer (NR concentration 90 nM)" recorded_number=-0.22
sequence=CCTAGTTGGTCATGGTCACACACGCTATAGGTAC measured_target="THRa homodimer (NR concentration 90 nM)" recorded_number=0.619
sequence=TGTCAAAGTTCAAAGGTAACGTGAGTATCCACAC measured_target="THRa homodimer (NR concentration 90 nM)" recorded_number=-0.326

Q: Request: PBM binding z-score, test system THRa homodimer (NR concentration 90 nM), entry `CCGAGTAGGTTATGTGGCATTCAGGCAACGGTGA`
Result: 0.415

Q: Moving on to the next sequence: `CGCCAAAGTTCAAGGTAACGTAACAGAAAGCAGC`
Result: 1.28

Q: Moving on to the next sequence: `GCTAGCAGGCCATTTGAGTCACTCAATGACGGGC`
Result: -1.02

Q: Moving on to the next sequence: `ATCGAAAGGTCGAGGCGAGTATAGAGAAAGGGAA`
Result: -0.512

====

System: THRa homodimer (NR concentration 90 nM)
test.name: PBM binding z-score (relative to random genomic background probes); higher = stronger binding; sequences stand for … in GC…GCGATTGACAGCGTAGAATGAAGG
Parameter: PBM binding z-score. Scope: all listed entries.
Write the number on its own, no unit after it.

sequence=ATCGAAAGGTCGAAGGTGAGTATGCCCACCCGAA reported_metric="PBM binding z-score" recorded_number=-0.289
sequence=AGAACGAGGGCAATGAGTTGATAGTACGGGTGGC reported_metric="PBM binding z-score" recorded_number=-0.483
sequence=CCAACTAGGTCACCGGAAGGTCAAAGTCCGCATG reported_metric="PBM binding z-score" recorded_number=3.16

Q: Request: PBM binding z-score, test system THRa homodimer (NR concentration 90 nM), entry `CTACCAAGCTGAACAAGGTCGTTGATTACTATTC`
Result: 1.46

Q: Moving on to the next sequence: `CCTAGCAGGCCAGGGTCACTCACGCATTTCGCTT`
Result: 1.32

The values you see were collected from the supplement of paper PMC6555819.
